Multi-source literature compilation: Ki on Coagulation factor XI (Homo sapiens).
Please respond with the number in nM and leave the unit unwritten.

## Task For the record O=C(O)c1ccc(NC(=O)[C@H](Cc2ccccc2)N2CCC(c3cc(Cl)ccc3-n3ccnn3)=CC2=O)cc1 , what value of Ki is listed for Coagulation factor XI (Homo sapiens)?
## Result 5.73

## Task Missing value: Ki, Coagulation factor XI (Homo sapiens), entry C[C@@H]1CCC[C@H](N2CCC(c3cc(Cl)ccc3-n3cc(Cl)nn3)=CC2=O)c2cc(ccn2)-c2c(cnn2C2CC2(F)F)NC1=O (stereo partly drawn) . Fill in?
## Result 0.36

## Task Requested read-out Ki, target or system Coagulation factor XI (Homo sapiens), entry C[C@@H]1CCC[C@H](n2cnc(-c3cc(Cl)ccc3-n3cc(Cl)nn3)cc2=O)c2ccnc(c2)-c2ccc(C#N)cc2NC1=O
## Result 0.22

## Task Can you look up Ki on Coagulation factor XI (Homo sapiens) for O=C1CCCCC(c2ccc(-c3c(F)ccc(Cl)c3F)c[n+]2[O-])c2nc(c[nH]2)-c2cc(C(=O)O)ccc2N1 (single isomer, unassigned) ?
## Result 2.54

## Task Please tell me: Ki of Cc1nc2cc(NC(=O)[C@H](Cc3ccccc3)N3CCc4cc(CN)ccc4C3=O)ccc2s1 , system Coagulation factor XI (Homo sapiens)?
## Result 907

## Task Please state recorded Ki (tested on Coagulation factor XI (Homo sapiens)) of Cc1ccc(-n2cc(C(F)(F)F)nn2)c(-c2cc(=O)n([C@H]3CCC[C@@H](C)C(=O)Nc4cc(C#N)ccc4-c4ccnc3c4)cn2)c1
## Result 1.9

## Task State its Ki on Coagulation factor XI (Homo sapiens): N=C(N)c1ccc(CNC(=O)[C@@H]2CCCN2C(=O)[C@@H](CO)NS(=O)(=O)Cc2ccc(C(=O)O)cc2)cc1
## Result 14

## Task I'm curious: which Ki was measured for COC(=O)Nc1ccc2c(c1)NC(=O)CC/C=C\CC(C(=O)NCCc1cc(Cl)ccc1-n1cnnn1)NC2=O (single isomer, unassigned) tested on Coagulation factor XI (Homo sapiens)?
## Result 153

## Task Coagulation factor XI (Homo sapiens) / Ki / COC(=O)c1ccc(Cl)cc1-c1cc(=O)n([C@H]2CCC[C@@H](C)C(=O)Nc3ccc(F)cc3-c3ccnc2c3)cn1 : value?
## Result 39

## Task Test system Coagulation factor XI (Homo sapiens); read-out Ki; what value for COC(=O)Nc1ccc(-c2cc(C(Cc3ccccc3)NC(=O)/C=C/c3cc(Cl)ccc3-n3ccnc3)c(Cl)nn2)cc1 (racemic) ?
## Result 1160

## Task API: value(readout= Ki, system= Coagulation factor XI (Homo sapiens), query= CC(C)(C)OC[C@@H](NS(=O)(=O)Cc1ccccc1)C(=O)N[C@@H](Cc1ccccc1)C(=O)NCc1ccc(C(=N)N)cc1 )
## Result 260

## Task Give Ki (Coagulation factor XI (Homo sapiens)) of the following compound: COC(=O)Nc1ccc2c(c1)NC(=O)CCCC[C@H](c1ccc(-c3cc(Cl)ccc3-n3cc(C)cn3)c[n+]1[O-])c1nc-2c(C)[nH]1 (single isomer, unassigned)
## Result 0.49

## Task Give the reported Ki for COC(=O)Nc1ccc2c(c1)NC(=O)CCCCC(c1ccc(-c3c(F)ccc(Cl)c3F)cn1)c1cc-2ccn1 (stereo not drawn) (system: Coagulation factor XI (Homo sapiens)).
## Result 33

## Task Form field: Ki recorded for CC(C)(C)OC(=O)N1CC(=O)N2c3cccc(c3)[C@@H](n3cnc(-c4cc(Cl)ccc4-n4cc(Cl)nn4)cc3=O)CCCCCNC(=O)[C@H]2C1 with Coagulation factor XI (Homo sapiens) (enter value)
## Result 276

## Task Identify the measured Ki of O=C(Nc1cnn(-c2ccccc2)c1)[C@H](Cc1ccccc1)n1cnc(-c2cc(Cl)ccc2-n2cc(Cl)nn2)cc1=O for Coagulation factor XI (Homo sapiens).
## Result 549

## Task Identify the measured Ki of O=C1CCCCC(c2ccc(-c3cc(Cl)ccc3-n3cnnn3)cn2)c2nc(c[nH]2)-c2cc(F)ccc2N1 (single isomer, unassigned) for Coagulation factor XI (Homo sapiens).
## Result 83.8

## Task What reported Ki corresponds to CC(C)(C)OC[C@@H](NS(=O)(=O)Cc1ccccc1)C(=O)N[C@@H](CCCCNC(=O)OCc1ccccc1)C(=O)NCc1ccc(C(=N)N)cc1 on Coagulation factor XI (Homo sapiens)?
## Result 480

## Task Form entry - test system: Coagulation factor XI (Homo sapiens); read-out: Ki; compound: COC(=O)Nc1ccc2c(c1)NC(=O)CCc1nc(ccc1F)CC(NC(=O)/C=C/c1cc(Cl)ccc1-n1cnnn1)c1nc-2cn1C (stereo not drawn)
## Result 103

## Task Tell me reported Ki for O=C1CCCCC(c2ccc(-c3cc(Cl)ccc3-n3cnnn3)c[n+]2[O-])c2nc(c[nH]2)-c2cc(F)ccc2N1 (single isomer, unassigned) , tested with Coagulation factor XI (Homo sapiens).
## Result 0.22

## Task Test system Coagulation factor XI (Homo sapiens); read-out Ki; what value for O=C(NCc1ccncc1)[C@H](Cc1ccccc1)n1cnc(-c2cc(Cl)ccc2-n2cc(Cl)nn2)cc1=O ?
## Result 552

## Task Look up Ki with Coagulation factor XI (Homo sapiens) for this compound: COC(=O)Nc1ccc2c(c1)NC(=O)C[C@H]1C[C@@H]1C[C@H](c1ccc(-c3c(F)ccc(Cl)c3F)c[n+]1[O-])c1nc-2c(C)[nH]1 (single isomer, unassigned)
## Result 0.4

## Task What is its Ki for Coagulation factor XI (Homo sapiens)? Entry: Cc1c(C(=O)N[C@H]2CCC[C@@H](C)C(=O)Nc3cc(NC(=O)OCF)ccc3-c3ccnc2c3)nnn1-c1cccc(Cl)c1F
## Result 5.49

## Task GET /values?readout=Ki&system=Coagulation factor XI (Homo sapiens)&item= COC(=O)Nc1ccc2c(c1)NC(=O)CCCCC(c1ccc(-c3c(F)ccc(Cl)c3F)c[n+]1[O-])c1cccc-2c1 (single isomer, unassigned)
## Result 0.36
